experiment: growth suppression of yeast trafficking mutant, preliminary HTS, modulators of trafficking downstream of Golgi apparatus project, 1536-format plate, OD 615 nm (AID 637); settings: yeast transport mutant growth, absorbance 615 nm, 18 h; stronger effect = higher value
# key: entry, value: inhibition
endpoint label: inhibition (%)

{"compound": "O=C(CN1C(=O)COc2ccccc21)NCCCN1CCN(Cc2ccccc2)CC1", "unit tag": "%", "measured": 22.4}
{"compound": "Cc1ccc(NC(=O)c2ccco2)cc1NC(=O)CSc1nnc(-c2cccs2)n1C", "unit tag": "%", "measured": 2.38}
{"compound": "O=C(Nc1ccc2c(c1)C(=O)N(C1CCCCC1)C2=O)C1CCCO1 (stereo not drawn)", "unit tag": "%", "measured": -0.63}
{"compound": "CC(=O)Nc1ccc(NC2=CC(=O)CC(C)(C)C2)cc1", "unit tag": "%", "measured": 5.08}
{"compound": "CCOC(=O)Cc1nnc(NC(=O)c2ncn[nH]2)s1", "unit tag": "%", "measured": -1.27}
{"compound": "CC(=O)OC(C(=O)NCc1ccco1)c1cccnc1 (stereo not drawn)", "unit tag": "%", "measured": 2.86}
{"compound": "Cc1cc(C)c(C(=O)CSc2nnc(-c3ccccc3Br)o2)cc1C", "unit tag": "%", "measured": 3.49}
{"compound": "CCCN(CCC)CCNS(=O)(=O)c1ccc2c(c1)oc(=O)n2C", "unit tag": "%", "measured": -2.06}
{"compound": "FC(F)(F)c1cc(-c2ccco2)nc(-n2nnc3ccccc32)n1", "unit tag": "%", "measured": 0.32}
{"compound": "COc1ccc(CCNC(=O)C2CCCN(c3nn4c(=O)cc(C)nc4s3)C2)cc1OC (stereo not drawn)", "unit tag": "%", "measured": 3.65}
{"compound": "Cc1ccc(C)c(C(=O)NC2CC(C)(C)NC(C)(C)C2)c1", "unit tag": "%", "measured": -6.98}
{"compound": "OCCNc1ncnc2c1c(-c1ccccc1)c(-c1ccccc1)n2Cc1ccco1", "unit tag": "%", "measured": 15.7}
{"compound": "CCCc1n[nH]c2c1/C(=N/O)CC(c1ccccc1)C2 (stereo not drawn)", "unit tag": "%", "measured": 2.86}
{"compound": "CCC(=O)n1nc(-c2ccco2)nc1N", "unit tag": "%", "measured": 5.4}
{"compound": "O=C(CN(CC1CCCO1)C(=O)CCC(=O)Nc1ccccn1)NCC1CCCO1 (stereo not drawn)", "unit tag": "%", "measured": -3.97}
{"compound": "COc1cccc(-c2noc(CCC(=O)NC3CCCCC3)n2)c1", "unit tag": "%", "measured": -5.4}
{"compound": "O=C(NCCc1ccccc1)c1cc(-c2ccco2)on1", "unit tag": "%", "measured": 7.94}
{"compound": "CCc1nccn1S(=O)(=O)c1ccc2ccc(C)cc2c1", "unit tag": "%", "measured": -3.49}
{"compound": "O=C(Nc1cc(C(F)(F)F)ccc1Cl)C1CCN(c2nnc(-n3cccc3)s2)CC1", "unit tag": "%", "measured": 2.22}
{"compound": "O=C(COC(=O)c1ccc(NS(=O)(=O)c2ccc3c(c2)OCCO3)cc1)NCC1CCCO1 (stereo not drawn)", "unit tag": "%", "measured": -7.78}
{"compound": "C=C(C)CSc1nnc2[nH]c(=O)cc(N)n12", "unit tag": "%", "measured": 7.62}
{"compound": "c1ccc(-c2nc3nonc3c3nc4ccccc4n23)cc1", "unit tag": "%", "measured": 1.9}
{"compound": "Cc1ccc(CC23CN4CCN(CC(C4)C2O)C3)c(C)c1 (stereo not drawn)", "unit tag": "%", "measured": 3.02}

====

assay: MRP1 drug-resistance reversers in H69AR cells – cell-based, doxorubicin co-treatment, pilot screen (AID 601); details: H69AR cells + 2 uM doxorubicin, CellTiter-Glo, 72 h; measured here: viability with 2 uM doxorubicin; at 10 µM; stronger effect = lower value

{"compound": "CSc1ccc2c(c1)N(CCC1CCCCN1C)c1ccccc1S2 (stereo not drawn)", "viability [%]": 1.26}
{"compound": "O=C(NCCN1CCCC1)C1COc2ccccc2O1 (stereo not drawn)", "viability [%]": 93.9}
{"compound": "COCC(C)NC(=O)CCS(=O)(=O)c1nc(-c2ccc(OC)cc2)cc(C(F)(F)F)n1 (stereo not drawn)", "viability [%]": 35.3}
{"compound": "Cc1cc(C)n(-c2nc(C)nc3c2cnn3-c2ccccc2)n1", "viability [%]": 88.8}
{"compound": "COc1ccc(C2(C(=O)Nc3cc(C)on3)CCOCC2)cc1", "viability [%]": 86.9}
{"compound": "O=C1CC(Sc2nnc(-c3ccccc3)o2)C(=O)N1c1ccccc1 (stereo not drawn)", "viability [%]": 9.04}
{"compound": "Cc1ccc(C)c(C(=O)NC2CC(C)(C)NC(C)(C)C2)c1", "viability [%]": 87.3}
{"compound": "Oc1ccc(Nc2nc(-c3ccc(O)cc3)cs2)cc1", "viability [%]": 88.1}
{"compound": "O=C(c1nc2n(n1)C(c1ccc(Cl)cc1)C=C(c1ccccc1)N2)N1CCOCC1 (stereo not drawn)", "viability [%]": 98.8}
{"compound": "Cc1ccccc1NC(=O)c1ccccc1", "viability [%]": 87.8}
{"compound": "CCCN(CCC)CCNS(=O)(=O)c1ccc2c(c1)oc(=O)n2C", "viability [%]": 92.5}
{"compound": "O=C(Nc1cc(C(F)(F)F)ccc1Cl)C1CCN(c2nnc(-n3cccc3)s2)CC1", "viability [%]": 63.3}
{"compound": "c1ccc(-n2ncc3c(NCc4cccs4)ncnc32)cc1", "viability [%]": 52.3}

====

test: viability of HCT116 without oncogenic beta-catenin – human colon tumor cells, pilot screen (AID 823); conditions: HCT116 beta-catenin knockout viability, CellTiter-Glo, 60 h; at 10 µM; stronger effect = lower value;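 also: 0% = wells killed by 20 µM Hyamine and 100% = untreated DMSO cell wells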
Results filed as inconclusive are left out. Active and inactive are the calls of the source.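 The calls were made as follows: active = cell viability at or below a set limit in both duplicate runs, the limit being the all-compound median minus 4 SD (cut at about 23% in these data, passing the limit was not always enough); inconclusive = no clear call, values can overlap the other calls; inactive = the rest.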

{"molecule": "Cc1ccc(C)c(C(=O)Nc2c(C(N)=O)oc3ccccc23)c1", "viability": "94.2% (inactive)"}
{"molecule": "COc1ccc(NC(=O)c2nnn(Cc3ccc(SC)cc3)c2N)c(OC)c1", "viability": "100% (inactive)"}
{"molecule": "Cc1noc(/C=C/N(C)C)c1S(=O)(=O)N1CCCC(C(=O)NCc2ccc(F)cc2)C1 (stereo not given)", "viability": "90.1% (inactive)"}
{"molecule": "O=C(CCS(=O)(=O)c1cccc2nonc12)N1CC(=O)N(CCc2ccccc2)C(=O)C1", "viability": "95.4% (inactive)"}
{"molecule": "N#CCCN1CCN(C(=S)c2ccc(-c3cccc(Cl)c3)o2)CC1", "viability": "76.9% (inactive)"}
{"molecule": "CCOc1ccc(-c2nc(CSCC(=O)N3CCN(c4cccc(OC)c4)CC3)c(C)o2)cc1", "viability": "34% (inactive)"}
{"molecule": "CCOC(=O)CSc1nc2c(c(=O)n(C)c(=O)n2C)n1Cc1ccccc1F", "viability": "95.9% (inactive)"}
{"molecule": "CCCCn1c(Oc2ccc(C(=O)OC)cc2)nc2c1c(=O)n(C)c(=O)n2C", "viability": "84.1% (inactive)"}
{"molecule": "COc1cc2c(cc1OC)C(c1ccccc1)N(C(=O)c1ccco1)CC2 (stereo not given)", "viability": "68.4% (inactive)"}
{"molecule": "CN(C)c1ccc(CN(C)C2CCCCC2)cc1", "viability": "93.1% (inactive)"}

====

inhibition values, listed per item
test: yeast transport mutant growth inhibition pilot in 384-well plates, post-Golgi transport modulator project (AID 636); details: absorbance 615 nm, about 18 h, stronger effect = higher value

{"compound": "O=C(COC(=O)c1ccc(NS(=O)(=O)c2ccc3c(c2)OCCO3)cc1)NCC1CCCO1 (stereo not given)", "unit tag": "%", "inhibition": -1.69}
{"compound": "O=C(NC1CCCCC1)C(c1ccc(Cl)cc1)N(C(=O)c1cnccn1)c1ccc2c(c1)OCO2 (stereo not given)", "unit tag": "%", "inhibition": -5.47}
{"compound": "CCC1(CC)C(=O)C(C)(C)C(=O)OC1c1cccs1 (stereo not given)", "unit tag": "%", "inhibition": -2.89}
{"compound": "Cc1ccc(OCc2nnc(SCC(=O)Nc3ccc4c(c3)OCO4)n2C)cc1", "unit tag": "%", "inhibition": -7.07}
{"compound": "CSc1nc2ccc(S(=O)(=O)N3CCOCC3)cc2s1", "unit tag": "%", "inhibition": -6.53}

====

assay: doxorubicin toxicity protection in MRP-1 cells – H69AR cells, CellTiter-Glo, duplicate, MRP-1 activator project, pilot screen (AID 807); conditions: H69AR viability with doxorubicin, CellTiter-Glo luminescence; at 10 µM; stronger effect = higher value;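 also: compound pretreatment 18-22 h then 72 h combined with doxorubicin; 0% = doxorubicin alone and 100% = vehicle without doxorubicin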
Below, each entry is listed alongside its reported viability increase.

{"compound": "O=C(NCc1ccc2c(c1)OCO2)c1nnc(Cc2ccc(F)cc2)o1", "viability increase [%]": 0.87}
{"compound": "COc1ccccc1-n1c(CNC(=O)c2ccccc2)nnc1SCC(=O)Nc1nnc(C)s1", "viability increase [%]": -0.83}
{"compound": "CCOc1ccc(CN2CCNC(=O)C2CC(=O)OC)cc1 (stereo unspecified)", "viability increase [%]": -0.51}
{"compound": "COc1ccc(-c2noc(-c3cc(C)cc(C)c3)n2)cc1OC", "viability increase [%]": 4.05}
{"compound": "O=C1C2CCCN2C(c2ccc(F)cc2)N1c1ccc(Cl)cc1 (stereo unspecified)", "viability increase [%]": -2.59}
{"compound": "N#CC1=C2SCN(c3ccccc3)CN2C(=O)CC1c1ccccc1Cl (stereo unspecified)", "viability increase [%]": -5.58}
{"compound": "CC1CCN(c2nc(-c3ccccc3)cc(C(F)(F)F)n2)CC1", "viability increase [%]": -1.76}
{"compound": "Cc1ccc(-c2nc(CS(=O)CC(=O)NCc3ccc(Cl)cc3)c(C)o2)cc1 (stereo unspecified)", "viability increase [%]": -2.83}
{"compound": "CCC(C)(C(=O)NC1CCCC1)N(C(=O)CNC(C)=O)c1ccc(C)cc1 (stereo unspecified)", "viability increase [%]": -0.57}
{"compound": "COc1ccc(OC)c2c1sc(=NC(=O)c1ccco1)n2C", "viability increase [%]": -5.98}
{"compound": "Cc1ccc(-c2nc(C(=O)NC3CCCCCC3)no2)cc1", "viability increase [%]": 4.07}
